Target: T1, human GIP receptor (human, UniProt P48546 22-466)
T1 construct: whole, on cells; also called hGIPR; hGIP-R
T1 sequence (looked up): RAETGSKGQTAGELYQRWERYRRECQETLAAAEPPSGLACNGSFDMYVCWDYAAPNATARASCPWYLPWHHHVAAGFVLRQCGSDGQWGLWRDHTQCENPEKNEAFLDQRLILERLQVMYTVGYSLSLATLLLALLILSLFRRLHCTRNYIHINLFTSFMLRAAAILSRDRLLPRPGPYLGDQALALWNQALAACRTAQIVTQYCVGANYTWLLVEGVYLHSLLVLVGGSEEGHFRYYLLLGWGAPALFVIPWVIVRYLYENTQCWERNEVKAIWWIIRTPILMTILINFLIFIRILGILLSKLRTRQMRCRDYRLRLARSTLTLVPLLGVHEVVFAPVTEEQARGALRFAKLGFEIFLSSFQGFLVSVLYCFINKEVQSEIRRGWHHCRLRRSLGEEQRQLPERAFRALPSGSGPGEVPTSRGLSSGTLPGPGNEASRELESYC
Experiment: [125I]-GIP competition SPA, hGIPR membranes
log10 Ki values by entry
Heads up: the numbers are on a log10 scale; they represent Ki in nM.

- Binder: "YXEGTXTSDXSILLDXKAQXEFIXYLIEGGPSSGAPPPS (Aib2; αMeF(2F)6; 4Pal10; Dab16; K17((2-[2-(2-Amino-ethoxy)-ethoxy]-acetyl)2-(γ-Glu)-CO-(CH2)16-CO2H); Aib20; D-Glu24; C-terminal NH2) [Example 234]"
  Property: "log10 Ki"
  Recorded Number: -1.25
- Binder: "YXEGTXTSDVSIXLDXKAQXAFIXXLIEGGPSSGAPPPS (Aib2; αMeF(2F)6; αMeL13; Orn16; K17((2-[2-(2-Amino-ethoxy)-ethoxy]-acetyl)2-(γ-Glu)-CO-(CH2)16-CO2H); Aib20; D-Glu24; αMeY25; C-terminal NH2) [Example 242]"
  Property: "log10 Ki"
  Recorded Number: -1.22
- Binder: "YXEGTXTSDASIXLDXKAQXEFIXXLIEGGPSSGAPPPS (Aib2; αMeF(2F)6; αMeL13; Orn16; K17((2-[2-(2-Amino-ethoxy)-ethoxy]-acetyl)2-(γ-Glu)-CO-(CH2)16-CO2H); Aib20; D-Glu24; αMeY25; C-terminal NH2) [Example 237]"
  Property: "log10 Ki"
  Recorded Number: -0.88
- Binder: "XXEGTFTSDYSIXLDXKAQXAFVEYLIAGGPSSGAPPPS (D-Tyr1; Aib2; αMeL13; Orn16; K17((2-[2-(2-Amino-ethoxy)-ethoxy]-acetyl)2-(γ-Glu)-CO-(CH2)18-CO2H); Aib20; C-terminal NH2) [Example 358]"
  Property: "log10 Ki"
  Recorded Number: -1.20
- Binder: "YXEGTFTSDYSIXLDEKAQXEFIEYLIAGGPSSGAPPPS (Aib2; αMeL13; K17((2-[2-(2-Amino-ethoxy)-ethoxy]-acetyl)2-(γ-Glu)-CO-(CH2)18-CO2H); Aib20; C-terminal NH2) [Example 331]"
  Property: "log10 Ki"
  Recorded Number: -1.07

Tell us which log10 Ki value is on record for YXEGTXTSDYSIXLDEKAQXEFIXYLIEGGPSSG (Aib2; αMeF(2F)6; αMeL13; K17((2-[2-(2-Amino-ethoxy)-ethoxy]-acetyl)2-(γ-Glu)-CO-(CH2)16-CO2H); Aib20; D-Glu24; C-terminal NH2) [Example 219]
-1.16

Tell us which log10 Ki value is on record for FXEGTFTSDYSIXLDKKAQXEFIEYLIAGGPSSGAPPPS (Aib2; αMeL13; K17((2-[2-(2-Amino-ethoxy)-ethoxy]-acetyl)2-(γ-Glu)-CO-(CH2)18-CO2H); Aib20; C-terminal NH2) [Example 338]
-1.08

Tell us which log10 Ki value is on record for XXEGTFTSDYSIXLDKKAQXAFIXYLIAGGPSSGAPPPS (D-Tyr1; Aib2; αMeL13; K17((2-[2-(2-Amino-ethoxy)-ethoxy]-acetyl)2-(γ-Glu)-CO-(CH2)18-CO2H); Aib20; D-Glu24; C-terminal NH2) [Example 352]
-1.14

Tell us which log10 Ki value is on record for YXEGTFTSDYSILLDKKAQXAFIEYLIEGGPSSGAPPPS (Aib2; K17((2-[2-(2-Amino-ethoxy)-ethoxy]-acetyl)2-(γ-Glu)-CO-(CH2)16-CO2H); Aib20; C-terminal NH2) [Example 315]
-1.17

Tell us which log10 Ki value is on record for YXEGTXTSDYSIXLDEKAQXEFIEXLIEGGPSSGAPPPS (Aib2; αMeF(2F)6; αMeL13; K17((2-[2-(2-Amino-ethoxy)-ethoxy]-acetyl)2-(γ-Glu)-CO-(CH2)18-CO2H); Aib20; αMeY25; C-terminal NH2) [Example 223]
-1.04
